Reported T/C values for the following compounds.
System: AKR/Lw mice, AKR lymphoma ip, median survival T/C
method.description: NCI In Vivo Anticancer Drug Screen. Data for tumor model Lymphoma AKR (Transplanted) (intraperitoneal) in AKR/Lw mice
conditions: endpoint: median survival time; dose: 400.0 mg/kg/injection; schedule: Q01DX001 (ip); vehicle: saline; higher = longer survival
Toxic doses and inconclusive results are not listed.

Recorded results for 5 compounds are shown here.
compound | T/C
COc1ccc(/C=C2\CCC3C(=O)CCCC3(C)C2=O)cc1 (stereo unspecified) | 97 % of control
c1ccc2c(c1)CNC2 | 111 % of control
OCC1(O)CC(O)C(O)(CO)CC1O (stereo unspecified) | 104 % of control
COc1cc2ccc(CC(=O)NCc3ccccc3)cc2cc1OC | 103 % of control
S=C1SCN(Cc2ccccc2)CN1Cc1ccccc1 | 91 % of control

Input line: Any idea what T/C came out for CC(=O)N1C(=O)C2(c3ccccc31)c1cccc3c1C(=C1C(=O)OC(=O)C12)C(=O)N3C(C)=O (stereo unspecified) on AKR/Lw mice, AKR lymphoma ip, median survival T/C?
Output line: 91 % of control

Input line: Any idea what T/C came out for O=[N+]([O-])O.[Th] on AKR/Lw mice, AKR lymphoma ip, median survival T/C?
Output line: 104 % of control

* * *

Tested on: AKR/Lw mice, AKR lymphoma ip, median survival T/C
method.description: NCI In Vivo Anticancer Drug Screen. Data for tumor model Lymphoma AKR (Transplanted) (intraperitoneal) in AKR/Lw mice
conditions: endpoint: median survival time; dose: 200.0 mg/kg/injection; schedule: Q01DX001 (ip); vehicle: Klucel (hydroxypropylcellulose) (HPC); higher = longer survival
Experimental: The antitumor activity of compounds was measured in mice bearing transplantable tumors. Survival or tumor size were measured and the results are expressed as the measurement made in the treated group (T) divided by the measurement made in the vehicle treated control group (C). The tumor model used in this assay is Lymphoma AKR (Transplanted) (intraperitoneal) in AKR/Lw mice
Toxic doses and inconclusive results are not listed.
value.kind: T/C

molecule | T/C
c1cc2cc3c(cc2cc1CC1NCCc2cc4c(cc21)OCO4)OCO3 (centres undefined) | 105 % of control
CC(C)c1ccc(C(c2c(O)c3ccccc3oc2=O)c2c(O)c3ccccc3oc2=O)cc1 | 106 % of control
COc1ccc(Br)cc1/C=N\NS(=O)(=O)c1ccc(C)cc1 | 100 % of control
c1cc2cc3c(cc2c2c1CC1c4cc5c(cc4CCN1C2)OCO5)OCO3 (centres undefined) | 97 % of control
O=C(COc1ccc(Cl)c(Cl)c1)N(Cc1ccccc1)Cc1cccnc1 | 108 % of control

Input line: Any idea what T/C came out for COC(=O)C1(C)CSCCC1=O (centres undefined) on AKR/Lw mice, AKR lymphoma ip, median survival T/C?
Output line: 105 % of control

Input line: Any idea what T/C came out for OCC1C(CO)C2(Cl)C(Cl)=C(Cl)C1(Cl)C2(Cl)Cl (centres undefined) on AKR/Lw mice, AKR lymphoma ip, median survival T/C?
Output line: 93 % of control

Input line: Any idea what T/C came out for CC(C)(C)/[N+]([O-])=[N+](\[O-])C(C)(C)C (tested in a mixture with another compound) on AKR/Lw mice, AKR lymphoma ip, median survival T/C?
Output line: 97 % of control

Input line: Any idea what T/C came out for CCOC(=O)/C(C(C)=O)=C(/O)c1ccc(OC(F)(F)C(F)Cl)cc1OC(F)(F)C(F)Cl.CCOC(=O)/C(C(C)=O)=C(/O)c1ccc(OC(F)(F)C(F)Cl)cc1OC(F)(F)C(F)Cl.[Cu] (centres undefined) on AKR/Lw mice, AKR lymphoma ip, median survival T/C?
Output line: 90 % of control

Input line: Any idea what T/C came out for CN(C)CCCNC(=O)Nc1ccccc1 on AKR/Lw mice, AKR lymphoma ip, median survival T/C?
Output line: 93 % of control

Input line: Any idea what T/C came out for CCOC(=O)C1OC12CCCCC2 (centres undefined) on AKR/Lw mice, AKR lymphoma ip, median survival T/C?
Output line: 92 % of control

Input line: Any idea what T/C came out for CCN(CC)C(N)=S on AKR/Lw mice, AKR lymphoma ip, median survival T/C?
Output line: 105 % of control

Input line: Any idea what T/C came out for Clc1nnc(Nc2ccccc2)c2ccccc12 on AKR/Lw mice, AKR lymphoma ip, median survival T/C?
Output line: 96 % of control

* * *

Test system: AKR/Lw mice, AKR lymphoma ip, median survival T/C
method.description: NCI In Vivo Anticancer Drug Screen. Data for tumor model Lymphoma AKR (Transplanted) (intraperitoneal) in AKR/Lw mice
conditions: endpoint: median survival time; dose: 6.2 mg/kg/injection; schedule: Q01DX001 (ip); vehicle: saline; higher = longer survival
Inconclusive results and toxic doses are left out.
value.kind: T/C

smiles.entry | system.name | value.kind | reported
CC[C@H]1CN2CCc3cc(OC)c(OC)cc3[C@@H]2C[C@@H]1C[C@H]1NCCc2cc(OC)c(OC)cc21 | AKR/Lw mice, AKR lymphoma ip, median survival T/C | T/C | 105 % of control
S=P(N1CC1)(N1CC1)N1CC1 | AKR/Lw mice, AKR lymphoma ip, median survival T/C | T/C | 118 % of control
O=NN(CCCl)C(=O)NCCCl | AKR/Lw mice, AKR lymphoma ip, median survival T/C | T/C | 106 % of control

Input line: For O=[N+]([O-])O.[Ga] , what is its reported T/C?
Output line: 94 % of control

Input line: For O=c1[nH]cc(F)c(=O)[nH]1 , what is its reported T/C?
Output line: 104 % of control

* * *

Reported T/C values for the following molecules.
System: AKR/Lw mice, AKR lymphoma ip, median survival T/C
method.description: NCI In Vivo Anticancer Drug Screen. Data for tumor model Lymphoma AKR (Transplanted) (intraperitoneal) in AKR/Lw mice
conditions: endpoint: median survival time; dose: 200.0 mg/kg/injection; schedule: Q01DX001 (ip); vehicle: Klucel (hydroxypropylcellulose) (HPC); higher = longer survival
Inconclusive results and toxic doses are left out.

Recorded results for 8 molecules are shown here.
molecule | T/C
COc1ccc(N2CSC(=S)N(c3ccc(OC)cc3)C2)cc1 | 88 % of control
CC(=O)CC(=O)c1ccccc1 | 106 % of control
O=C(NC(CSC(c1ccccc1)c1ccccc1)C(=O)O)OCc1ccccc1 (stereo not drawn) | 93 % of control
C=CCN(CC=C)c1ccc(N(CC)CC)cc1 | 92 % of control
OC1(C#CC2(O)c3ccccc3-c3ccccc32)c2ccccc2-c2ccccc21 | 108 % of control
O=C1CSC(=S)N1c1ccco1 | 96 % of control
CC(=O)CCN1C(=O)c2ccccc2C1=O | 105 % of control
CC(=O)c1cccc(N)c1 | 91 % of control

Input line: For CN(CCOc1ccccc1O)CCOc1ccccc1O , what is its reported T/C?
Output line: 107 % of control

Input line: For NC(CSC(c1ccccc1)(c1ccccc1)c1ccc(CO)cc1)C(=O)O (stereo not drawn) , what is its reported T/C?
Output line: 94 % of control

Input line: For Brc1cc(Br)c(-c2c(Br)cc(Br)cc2Br)c(Br)c1 , what is its reported T/C?
Output line: 100 % of control

Input line: For NCOC(=O)Cc1ccc(Br)cc1 , what is its reported T/C?
Output line: 102 % of control

Input line: For CC(=O)NNC(=O)c1ccccn1 , what is its reported T/C?
Output line: 95 % of control

* * *

Reported T/C values for the following molecules.
Tested on: AKR/Lw mice, AKR lymphoma ip, median survival T/C
method.description: NCI In Vivo Anticancer Drug Screen. Data for tumor model Lymphoma AKR (Transplanted) (intraperitoneal) in AKR/Lw mice
conditions: endpoint: median survival time; dose: 100.0 mg/kg/injection; schedule: Q01DX001 (ip); vehicle: saline; higher = longer survival
Inconclusive results and toxic doses are left out.

molecule | system.name | T/C
N#CCCNc1ccc(NC(=O)C(F)(F)F)cc1 | AKR/Lw mice, AKR lymphoma ip, median survival T/C | 103 % of control
CC12CCCC(=O)C1CC/C(=C\c1ccco1)C2=O (configuration not stated) | AKR/Lw mice, AKR lymphoma ip, median survival T/C | 109 % of control

Input line: For COc1cc2ccc(CC(=O)NCc3ccccc3)cc2cc1OC , what is its reported T/C?
Output line: 117 % of control

* * *

Reported T/C values for the following compounds.
Test system: AKR/Lw mice, AKR lymphoma ip, median survival T/C
method.description: NCI In Vivo Anticancer Drug Screen. Data for tumor model Lymphoma AKR (Transplanted) (intraperitoneal) in AKR/Lw mice
conditions: endpoint: median survival time; dose: 400.0 mg/kg/injection; schedule: Q01DX001 (ip); vehicle: other; higher = longer survival
Inconclusive results and toxic doses are left out.

Recorded results for 2 compounds are shown here.
compound | T/C
CC(=O)c1ccc2ccccc2c1O | 111 % of control
CC(=O)CC(=O)Nc1ccc([N+](=O)[O-])cc1 | 86 % of control

Input line: For c1cc2cc3c(cc2cc1CC1=NCCc2cc4c(cc21)OCO4)OCO3 , what is its reported T/C?
Output line: 102 % of control

Input line: For O=CN(c1ccccc1)c1ccccc1 , what is its reported T/C?
Output line: 100 % of control

Input line: For CCOC(=O)C(O)C(C#N)c1ccccc1 (stereo not given) , what is its reported T/C?
Output line: 100 % of control
